test system: Strain 632; assay: Antifungal activity against fluconazole-resistant strain; format: cell-based; settings: Candida albicans, 632, read-out: MIC80 Strain 632
EXPERIMENTAL_ENDPOINT: MIC80 (µg/mL)

> print(dat)
                                    compound  cmp  value.observed
 1  O=C(Nc1ccc(F)cc1F)c1ccc(COC(Cn2ccnc2)c2ccc(Cl)cc2Cl)cc1 (centres unmarked) [A11]    =               2
 2  O=C(Nc1cccc2ccccc12)c1ccc(COC(Cn2ccnc2)c2ccc(Cl)cc2Cl)cc1 (centres unmarked) [A13]    =               8
 3  O=C(Nc1cccc(Br)c1)c1ccc(COC(Cn2ccnc2)c2ccc(Cl)cc2Cl)cc1 (centres unmarked) [A10]    =               8
 4  O=C(Nc1ccccc1)c1ccc(COC(Cn2ccnc2)c2ccc(Cl)cc2Cl)cc1 (centres unmarked) [A01]    =               4
 5  COc1ccc(NC(=O)c2ccc(COC(Cn3ccnc3)c3ccc(Cl)cc3Cl)cc2)cc1 (centres unmarked) [A07]    =               4
 6  O=C(Nc1ccc(C(F)(F)F)cc1)c1ccc(COC(Cn2ccnc2)c2ccc(Cl)cc2Cl)cc1 (centres unmarked) [A06]    =               2
 7  O=C(Nc1cccc(Cl)c1)c1ccc(COC(Cn2ccnc2)c2ccc(Cl)cc2Cl)cc1 (centres unmarked) [A09]    =               4
 8  Cc1ccc(NC(=O)c2ccc(COC(Cn3ccnc3)c3ccc(Cl)cc3Cl)cc2)cc1 (centres unmarked) [A05]    =               4
 9  O=C(Nc1ccc2ccccc2c1)c1ccc(COC(Cn2ccnc2)c2ccc(Cl)cc2Cl)cc1 (centres unmarked) [A14]    =              16
10  OC(Cn1cncn1)(Cn1cncn1)c1ccc(F)cc1F [Fluconazole, fluconazole, reference compound]    >             128
11  O=C(Nc1ccc(F)cc1)c1ccc(COC(Cn2ccnc2)c2ccc(Cl)cc2Cl)cc1 (centres unmarked) [A02]    =               4
